Record form. Attribute: SARS-CoV-2 infection rate. Fill in for each entry.
Test system: Vero E6 infected with SARS-CoV-2
Experiment: SARS-CoV-2 infection rate relative to infected DMSO; higher = more infection, active = 60 or less
Settings: 24 h
Write the number in % without appending the unit.

Write down SARS-CoV-2 infection rate measured for item CCCCc1nc(Cl)c(CO)n1Cc1ccc(-c2ccccc2-c2nnn[nH]2)cc1 [losartan] (10 µM)
99.5

Specify SARS-CoV-2 infection rate for Nc1nc(=O)n([C@H]2C[C@H](O)[C@@H](CO)O2)cc1F [fdcyd] (10 µM) and stop.
97.5

Determine its reported SARS-CoV-2 infection rate: CC[N+](C)(CC)CCC[n+]1c(-c2ccccc2)c2cc(N)ccc2c2ccc(N)cc21 [propidium-iodide] (10 µM)
93.5

Give a short answer stating reported SARS-CoV-2 infection rate for CN/C(=N\S(=O)(=O)c1ccc(Cl)cc1)N1C[C@H](c2ccccc2)C(c2ccc(Cl)cc2)=N1 (racemic) (10 µM) .
114
